B1: minF1; the commonest letter at each place (parent)
chain: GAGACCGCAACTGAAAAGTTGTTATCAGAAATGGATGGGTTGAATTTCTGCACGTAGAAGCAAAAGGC

# Variants of: B1
# PROTOCOL: fraction ligated after 30 min (ligated reads / total reads); higher = more ligase activity
# SETUP_CONDITIONS: with F1*subA RNA substrate (template-directed ligation), 42 °C
Note: every record was labeled by where its fraction ligated sits among low: < 0.009; intermediate: ≥ 0.009 and < 0.04; high: ≥ 0.04

Solved entries (count: 6):
# MUT, ASSIGNED_CLASS
measured = [
    ("G28C G42T", "high"),
    ("A30T A44C", "high"),
    ("G33T T36G", "intermediate"),
    ("G34T G42T", "low"),
    ("A24C A29G", "intermediate"),
    ("A27C A30C", "high"),
]

### Prompt Returns: class label. Input: G28C A35T
### Response intermediate

### Prompt Returns: class label. Input: G42C A43C A44T
### Response low

### Prompt Returns: class label. Input: G37T G42C
### Response low

### Prompt Returns: class label. Input: G34T A35G
### Response low

### Prompt Returns: class label. Input: T23G G33T
### Response high

From: the supplement of paper PMC6755084
